Values from patent US20100129369A1

- experimental.system: T1, human c-Met ECD-Fc-Flis (human)
- T1 construct: c-Met ECD fused to Fc with flag- and His-tag at the C-terminus; also called human c-Met extracellular domain (ECD)-Fc-Flis fusion; human c-Met-Flis-Fc ECD
- T1 sequence (chain, as listed by the source): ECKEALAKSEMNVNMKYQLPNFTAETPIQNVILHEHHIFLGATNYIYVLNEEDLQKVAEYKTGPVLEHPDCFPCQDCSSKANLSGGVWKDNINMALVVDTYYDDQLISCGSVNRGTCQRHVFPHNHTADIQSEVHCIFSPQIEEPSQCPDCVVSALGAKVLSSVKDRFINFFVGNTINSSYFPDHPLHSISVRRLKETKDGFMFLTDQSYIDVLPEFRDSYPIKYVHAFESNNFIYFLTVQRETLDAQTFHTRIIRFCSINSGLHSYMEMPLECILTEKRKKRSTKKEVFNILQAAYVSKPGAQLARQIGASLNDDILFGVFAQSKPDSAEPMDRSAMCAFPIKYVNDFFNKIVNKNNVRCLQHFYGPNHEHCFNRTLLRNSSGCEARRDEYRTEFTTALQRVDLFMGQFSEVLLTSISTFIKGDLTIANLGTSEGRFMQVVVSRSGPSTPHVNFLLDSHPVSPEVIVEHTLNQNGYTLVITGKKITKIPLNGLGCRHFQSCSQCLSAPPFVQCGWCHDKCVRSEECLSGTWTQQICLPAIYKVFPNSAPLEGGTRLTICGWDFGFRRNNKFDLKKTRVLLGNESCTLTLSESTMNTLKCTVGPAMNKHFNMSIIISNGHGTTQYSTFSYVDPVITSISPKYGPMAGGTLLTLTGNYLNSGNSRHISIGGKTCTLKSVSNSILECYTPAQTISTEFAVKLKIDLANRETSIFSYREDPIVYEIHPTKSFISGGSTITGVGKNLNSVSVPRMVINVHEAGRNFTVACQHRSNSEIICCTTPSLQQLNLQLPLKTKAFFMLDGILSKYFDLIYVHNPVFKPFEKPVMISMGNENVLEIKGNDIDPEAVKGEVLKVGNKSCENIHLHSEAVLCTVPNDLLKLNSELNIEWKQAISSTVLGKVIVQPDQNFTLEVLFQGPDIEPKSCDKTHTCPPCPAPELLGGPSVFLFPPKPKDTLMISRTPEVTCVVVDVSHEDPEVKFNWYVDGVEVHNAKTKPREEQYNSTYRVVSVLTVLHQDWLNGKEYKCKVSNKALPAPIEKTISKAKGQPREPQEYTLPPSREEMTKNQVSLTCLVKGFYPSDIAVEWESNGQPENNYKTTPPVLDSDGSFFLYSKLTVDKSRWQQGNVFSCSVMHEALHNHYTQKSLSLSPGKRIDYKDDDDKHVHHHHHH
- assay.method.text: HGF-blocking ELISA: HGF signal on coated c-Met ECD-Fc-Flis; Ab 30.52 ng/mL
measured.parameter: AVG A450 nm (A450 nm)
Kindly answer with a numeric value in A450 nm, unit omitted.

So what's the measured AVG A450 nm for this one? C8-6 (antibody, human IgG2, kappa, V domains shown, Named IgG4 kappa; also called C8-6 IgG4) VH: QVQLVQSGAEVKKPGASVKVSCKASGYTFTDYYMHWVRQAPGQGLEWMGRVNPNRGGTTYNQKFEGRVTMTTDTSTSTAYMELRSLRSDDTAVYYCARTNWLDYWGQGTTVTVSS VL: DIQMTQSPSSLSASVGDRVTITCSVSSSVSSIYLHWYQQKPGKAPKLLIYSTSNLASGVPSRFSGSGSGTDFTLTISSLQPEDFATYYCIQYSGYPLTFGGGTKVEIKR
2.42
